Tested on: riboswitch 15D10
MEASUREMENT_PROTOCOL: Luci-15D10 luciferase reporter in ARPE-19 cells
Type: cell-based, human
CONDITION: FIG. 9E
MEASUREMENT_NAME: activity in increasing riboswitch 15D10-regulated luciferase expression

COMPOUND: COc1ccc(C(=O)S/C(CCOP(=O)(O)O)=C(/C)N(C=O)Cc2cnc(C)nc2N)cc1
MEASURED: no activity

COMPOUND: C/C(=C(\CCOP(=O)(O)O)SC(=O)c1ccccc1)N(C=O)Cc1cnc(C)nc1N [benfotiamine, reference compound]
MEASURED: no activity

====

System: riboswitch 15D10
MEASUREMENT_PROTOCOL: Luciferase reporter with 15D10 riboswitch (Luci-15D10) in AML12 cells
Type: cell-based, mouse
CONDITION: Mus musculus, AML12, 24 h, 50 μM; AML12 cells; Table 3; read-out: Fold increase in riboswitch 15D10-regulated luciferase expression, AML
Readings of fold induction at 50 µM for the listed molecules

Some solved cases for reference:
MOLECULE: C/C(=C(\CCO)SC(=O)c1ccc(C(C)(C)C)cc1Oc1ccccc1)N(C=O)Cc1cnc(C)nc1N
MEASURED: 60.6

MOLECULE: C/C(=C(\CCO)SC(=O)c1c(Cl)cccc1Oc1ccccc1)N(C=O)Cc1cnc(C)nc1N
MEASURED: 7.39

MOLECULE: C/C(=C(\CCO)SC(=O)c1cc(Cl)ccc1Oc1ccccc1Br)N(C=O)Cc1cnc(C)nc1N
MEASURED: 206

MOLECULE: C/C(=C(\CCO)SC(=O)c1ccccc1Oc1ccccc1)N(C=O)Cc1cnc(C)nc1N
MEASURED: 348

MOLECULE: C/C(=C(\CCO)SC(=O)c1ccccc1Oc1cccc2ccccc12)N(C=O)Cc1cnc(C)nc1N
MEASURED: 316

For C/C(=C(\CCO)SC(=O)c1c(F)cccc1Oc1ccccc1)N(C=O)Cc1cnc(C)nc1N on riboswitch 15D10, measured fold induction at 50 µM was 305

For C/C(=C(\CCO)SC(=O)c1ccccc1Oc1ccc(N2CCCC2=O)cc1)N(C=O)Cc1cnc(C)nc1N on riboswitch 15D10, measured fold induction at 50 µM was 117

For C/C(=C(\CCO)SC(=O)c1cccc2c1oc1ccccc12)N(C=O)Cc1cnc(C)nc1N on riboswitch 15D10, measured fold induction at 50 µM was 288

For C/C(=C(\CCO)SC(=O)c1c(C)cc(Oc2ccccc2)cc1F)N(C=O)Cc1cnc(C)nc1N on riboswitch 15D10, measured fold induction at 50 µM was 12

For C/C(=C(\CCO)SC(=O)c1c(F)cccc1Oc1ccccc1Br)N(C=O)Cc1cnc(C)nc1N on riboswitch 15D10, measured fold induction at 50 µM was 131

For C/C(=C(\CCO)SC(=O)c1ccccc1Sc1ccccc1)N(C=O)Cc1cnc(C)nc1N on riboswitch 15D10, measured fold induction at 50 µM was 535

For C/C(=C(\CCO)SC(=O)c1ccccc1Oc1cccc(C(C)(C)C)c1)N(C=O)Cc1cnc(C)nc1N on riboswitch 15D10, measured fold induction at 50 µM was 188

For C/C(=C(\CCO)SC(=O)c1ccc(C)cc1Oc1ccccc1Cl)N(C=O)Cc1cnc(C)nc1N on riboswitch 15D10, measured fold induction at 50 µM was 273

For C/C(=C(\CCO)SC(=O)c1c(F)cccc1Oc1cccc(Cl)c1)N(C=O)Cc1cnc(C)nc1N on riboswitch 15D10, measured fold induction at 50 µM was 329

For C/C(=C(\CCO)SC(=O)c1ccccc1Oc1ccc2c(c1)OCCO2)N(C=O)Cc1cnc(C)nc1N on riboswitch 15D10, measured fold induction at 50 µM was 267
